Values compiled from PubChem BioAssay.

Listing of recorded composite z-score by entry.
assay_remarks: small-molecule microarray binders of probe aWnt5a, primary screen, biochemical, biotinylated probe, 635/667 nm fluorescence (AID 1113);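 note: score merges 667 nm fluorescence intensity with signal-to-noise per printed feature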
test_parameters: higher = more signal
# print the numeric value only

Known composite z-score results, listed for orientation:
>  <sample_smiles>
COCCOC(=O)N1C(=O)[C@@]2(c3cc(C#CCNC(N)=O)ccc31)[C@H](C(=O)NC[C@H](O)c1ccccc1)[C@H]1C(=O)O[C@H](c3ccccc3)[C@H](c3ccccc3)N1[C@@H]2c1ccc(OCCO)cc1

>  <composite z-score>
-0.0459

$$$$
>  <sample_smiles>
COC(=O)[C@@]1(Cc2ccc(F)cc2)[C@H]2c3cc(C(=O)N4CCCC4)n(CCO)c3C[C@H]2CN1C(=O)c1ccccc1

>  <composite z-score>
0.229

$$$$
>  <sample_smiles>
CC(C)CNC(=O)[C@@H]1c2ccccc2C(=O)N(Cc2ccccc2Cl)[C@H]1c1ccc(CO)cc1

>  <composite z-score>
-0.244

$$$$
>  <sample_smiles>
CN(C)CCCNC(=O)[C@@H]1c2ccccc2C(=O)N(C2Cc3ccccc3C2)[C@H]1c1ccc(CO)cc1

>  <composite z-score>
0.0436

$$$$
>  <sample_smiles>
COCC(=C=CC[C@@H](O)c1ccc(OCCO)cc1)C[C@@H](O)COCc1ccccc1

>  <composite z-score>
0.0559

$$$$

Given item COC(=O)[C@@]1(Cc2ccc(F)cc2)[C@H]2c3cc(C(=O)N(C)C)n(CCO)c3C[C@H]2CN1C(=O)c1ccccc1 , the value recorded as its composite z-score is -0.0271

Given item CC(C)CNC(=O)[C@@]1(C)c2ccccc2C(=O)N(Cc2cc(F)cc(C(F)(F)F)c2)[C@H]1c1ccc(CO)cc1 , the value recorded as its composite z-score is -0.17
